Assay system: Cyclin-dependent kinase 1/cyclin B (Homo sapiens)
Protocol text: Inhibition of CDK1/cyclinB in presence of 15 uM ATP
pIC50: −log10 of the molar value.
Reported pIC50 values follow for various molecules

> print(dat)
                              record.smiles  experimental.value
1     CC(C)Cn1cnc2ccc3nc(C4=NCCN4)sc3c2c1=O                4.07
2      CC(C)n1cnc2ccc3nc(C4=NCCN4)sc3c2c1=O              < 4.00
3         CCn1cnc2ccc3nc(C4=NCCN4)sc3c2c1=O              < 4.00
4  CC(C)n1cnc2ccc3nc(C(=N)NCCN(C)C)sc3c2c1=O                5.00
5    CC(C)CCn1cnc2ccc3nc(C4=NCCN4)sc3c2c1=O              < 5.00

Task: Report pIC50 for CCCn1cnc2ccc3nc(C4=NCCN4)sc3c2c1=O tested on Cyclin-dependent kinase 1/cyclin B (Homo sapiens).
Output: < 4.00

Task: Report pIC50 for COc1ccc(Cn2cnc3ccc4nc(C5=NCCN5)sc4c3c2=O)cc1 tested on Cyclin-dependent kinase 1/cyclin B (Homo sapiens).
Output: < 5.00
